target-or-system: Free fatty acid receptor 4 (Homo sapiens)
Sequence (whole entry): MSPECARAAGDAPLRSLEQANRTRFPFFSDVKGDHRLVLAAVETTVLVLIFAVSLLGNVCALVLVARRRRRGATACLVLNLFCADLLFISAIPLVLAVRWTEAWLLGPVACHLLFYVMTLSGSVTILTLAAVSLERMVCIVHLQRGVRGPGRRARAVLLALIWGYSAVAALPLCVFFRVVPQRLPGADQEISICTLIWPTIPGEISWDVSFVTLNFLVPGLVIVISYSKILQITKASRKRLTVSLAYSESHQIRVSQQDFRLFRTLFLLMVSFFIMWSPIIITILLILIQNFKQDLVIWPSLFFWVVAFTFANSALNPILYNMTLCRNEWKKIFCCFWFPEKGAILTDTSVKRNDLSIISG
protocol-details: Agonist activity at N-terminal FLAG tagged human FFAR4 transfected in African green monkey COS-7 cells assessed as accumulation of inositol phosphate at 10 uM incubated for 90 mins by TopCount NXT counter based analysis relative to control
Assay type: cell-based
condition-details: filed as agonist
The entries below come with measured Emax values attached.
// units = %; emit number, no label

## Input Look up Emax for this compound: Cc1ccc(Nc2nc(N)nc(COc3cccc(N4CCCC4=O)c3)n2)cc1Cl
## Output 50

## Input Again, but for COc1cccc(CCNc2nc(N)nc(COc3cc(C)cc(N4CCCC4=O)c3)n2)c1
## Output 46

## Input Again, but for Cc1ccc(Nc2nc(N)nc(COc3ccc4c(C)cc(=O)oc4c3)n2)cc1Cl
## Output 45

## Input Again, but for Cc1cc(=O)oc2cc(OCc3nc(N)nc(Nc4ccc(C(C)C)cc4)n3)ccc12
## Output 75

## Input Again, but for Cc1ccc(Nc2nc(N)nc(COc3cc(Cl)cc(N4CCCC4=O)c3)n2)cc1Cl
## Output 43

## Input Again, but for CCc1ccc(Nc2nc(N)nc(COc3ccc4c(C)cc(=O)oc4c3)n2)cc1Cl
## Output 48

## Input Again, but for Cc1ccc(Nc2nc(N)nc(COc3ccc(Cl)c(N4CCCC4=O)c3)n2)cc1Cl
## Output 42

## Input Again, but for COc1ccc(OCc2nc(N)nc(Nc3ccc(C)c(Cl)c3)n2)cc1N1CCCC1=O
## Output 53

---

target-or-system: Free fatty acid receptor 1 (Homo sapiens, UniProt O14842)
Sequence (O14842 whole entry): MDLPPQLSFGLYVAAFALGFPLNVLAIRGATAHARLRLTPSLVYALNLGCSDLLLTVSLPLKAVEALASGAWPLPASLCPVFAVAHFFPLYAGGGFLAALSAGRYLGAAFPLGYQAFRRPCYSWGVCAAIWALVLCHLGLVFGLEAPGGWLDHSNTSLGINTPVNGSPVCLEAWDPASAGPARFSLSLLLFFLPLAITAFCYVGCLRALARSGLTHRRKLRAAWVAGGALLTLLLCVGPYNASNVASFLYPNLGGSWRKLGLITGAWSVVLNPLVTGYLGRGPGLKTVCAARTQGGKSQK
protocol-details: Agonist activity at N-terminal FLAG tagged human FFAR1 transfected in African green monkey COS-7 cells assessed as accumulation of inositol phosphate incubated for 90 mins by TopCount NXT counter based analysis
value-kind: EC50
Numeric answer plus unit only.

## Input # returns recorded EC50 (system: Free fatty acid receptor 1 (Homo sapiens, UniProt O14842)) for Cc1cc(OCc2nc(N)nc(NCCc3cccc(C#N)c3)n2)cc(N2CCCC2=O)c1
## Output 0.831 µM

---

The entries below come with measured solubility kinetic values attached.
protocol-details: Solubility of the compound in PBS buffer at pH 7.4
Assay type: physicochemical

# molecule, test-result
measured = [
    ("Cc1cc(OCc2nc(N)nc(NCCc3cccc(F)c3)n2)cc(N2CCCC2=O)c1", "84 µM"),
    ("Cc1cc(OCc2nc(N)nc(NCC(c3cccc(Cl)c3)N3CCCC3)n2)cc(N2CCCC2=O)c1 (stereo not given)", "294 µM"),
    ("Cc1ccc(Nc2nc(N)nc(COc3ccc4c(C)cc(=O)oc4c3)n2)cc1Cl", "< 2 µM"),
    ("Cc1ccc(Nc2nc(N)nc(COc3cccc(N4CCCC4=O)c3)n2)cc1Cl", "28 µM"),
]

Pending molecule:
## Input Look up solubility kinetic for this molecule: Cc1cc(OCc2nc(N)nc(NCCc3cccc4c3OC(F)(F)O4)n2)cc(N2CCCC2=O)c1
## Output 13 µM
